From: the supplement of paper PMC12042874

# assayExplanation: amyloid nucleation score (Sup35N fusion, yeast selection) (log enrichment); library NNK1; higher = more nucleation; inactive = no reads after selection;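 note: zero at mode of non-aggregating sequences after 7 days selection at 30°C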
assayMetric: amyloid nucleation score

Some solved entries appear below for comparison.
# substance, amyloid nucleation score
rows = [
    ("PIFKMDCGDMVCT", 0.121),
    ("SQLARLLFIAGIVPTRARVI", 0.144),
    ("LRCLVLYDEVANGRPEDSGG", 0.725),
    ("TVFFCNWVEPYDFNICR", 6.76),
    ("YGYMGGCHFPLYLMRIDSRD", 0.564),
]

Now, please, on to the next substance.
Please fill in: amyloid nucleation score reported for VSTVLARSVWLWDTPFLRSE = -0.079

---

# assayExplanation: amyloid nucleation score (Sup35N fusion, yeast selection) (log enrichment); library NNK2; higher = more nucleation; inactive = no reads after selection
Decide by amyloid nucleation score: equal to or exceeding 0.4 means Yes, less means No.

Answer whether amyloid nucleation score of VSYSGNRYWCSFVNKKAGGN is greater than or equal to 0.4. Yes

Check if amyloid nucleation score >= 0.4 (inclusive). Item: RLKWKLEQNSSLLWGRYRTA Yes

hey, is amyloid nucleation score for this one >= 0.4? ASFQLELS Yes

# check: amyloid nucleation score of SYHNVG is greater than or equal to 0.4 No

Hello, I need to know if IMFMGNTVIRDCDLQ has measured amyloid nucleation score not below 0.4. Thanks! Yes

Hello, I need to know if AYKSYGKASSDWMWGLCSHH has measured amyloid nucleation score not below 0.4. Thanks! No

Does the substance KILDWRGWSRGSGPLTSSTW have recorded amyloid nucleation score that is 0.4 or more? Yes

Assess whether reported amyloid nucleation score for LSHKAEYLCVFSWACRIMGL sits at 0.4 or higher. No

Could you tell me if the measured amyloid nucleation score of ETPLTGLRNPSLNQCLMELM reaches 0.4 or more? No

---

# assayExplanation: amyloid nucleation score (Sup35N fusion, yeast selection) (log enrichment); library NNK2; higher = more nucleation; inactive = no reads after selection
Criterion: amyloid nucleation score meeting or surpassing 0.2. Met: Fulfilled. Not met: Not fulfilled.

Determine whether measured amyloid nucleation score meets or exceeds 0.2 for FFSDVIRFWNKHTCKINLLR Not fulfilled

Kindly determine if amyloid nucleation score recorded for FMQPYTCRSDFDRK is above or exactly 0.2. Not fulfilled

Hi team, for GHYLYGFSKNPASENLNAFQ , is the recorded amyloid nucleation score at or above 0.2? Not fulfilled

Form field: amyloid nucleation score at least 0.2? Entry: VAFKSTLQVLVANKFG Not fulfilled

Has LLVAALSHGPGISRSVNSHP a recorded amyloid nucleation score greater than or equal to 0.2? Fulfilled

Does NRAAKRGIRRHMSSYTYARV have a reported amyloid nucleation score of at least 0.2? Not fulfilled

Does the reported amyloid nucleation score for VSMIVGSDNVPVSFETDVSV fall at or above the 0.2 mark? Fulfilled

---

Provide the recorded amyloid nucleation score for the entries that follow.
# assayExplanation: amyloid nucleation score (Sup35N fusion, yeast selection) (log enrichment); library NNK2; higher = more nucleation; inactive = no reads after selection
Field format: numeric only.

The recorded amyloid nucleation score for VSFWFVFFWMISTRSEMMDR is -1.08

Value of amyloid nucleation score reported for the sequence DFYMYSVVDLS is -0.767

Value of measured amyloid nucleation score for the entry LMYKNCCWFLA : 8.26

# amyloid nucleation score (sequence: HSLLSYMFSFQLTNMNCDLG ) is -0.117

Quick note, amyloid nucleation score for FVSLVWKTLKVSRSIVSNFD landed at 2.74

The value of amyloid nucleation score measured for the sequence MIWLHIILMLMLVCRVLSE turned out to be 0.914

amyloid nucleation score reading for VDLGMPSLWRSDGASPGGFF : 0.277

---

# assayExplanation: amyloid nucleation score (Sup35N fusion, yeast selection) (log enrichment); library NNK1; higher = more nucleation; inactive = no reads after selection
assayMetric: amyloid nucleation score

Recorded amyloid nucleation score, per entry:
# sequenceText, reportedResult
rows = [
    ("ISFSSYYNLVLDYLELSQCL", "inactive"),
    ("VFKESGSRGFVMYTGILSCQ", 0.507),
    ("NLEWGLYISTANCPRNYDKA", "inactive"),
    ("ALPREWKCMSLLFENGSGNS", "inactive"),
]

Next item in the queue.
Recorded amyloid nucleation score (sequence SALSGWVANSCYEVRGLRNV ): inactive

---

# assayExplanation: amyloid nucleation score (Sup35N fusion, yeast selection) (log enrichment); library NNK2; higher = more nucleation; inactive = no reads after selection
assayMetric: amyloid nucleation score

# substance, amyloid nucleation score
measured = [
    ("QSKFDTFGSFACTYRYFTAN", 0.698),
    ("GAVHGMT", 0.538),
    ("ARCCFVPEEYSVV", 1.22),
    ("VEYINWRFIRNTYSVE", 2.14),
    ("SSWYHFDFGYCECGSNDGFV", 0.102),
    ("SDLYNSSFEVLYSSYCPDVW", "inactive"),
    ("GVTVKGAVIFYRY", 6.47),
    ("LPYYKHCNRLTNVTCLYKRR", 3.34),
]

amyloid nucleation score for DCRFQIHVCDAYDK is inactive

Briefly, amyloid nucleation score measured for RFSQRNPITVHGQSDTV : inactive

Value of measured amyloid nucleation score for the entry ITVFAGFLRCCYLCFLDNHS : inactive

Measured amyloid nucleation score, YFRNDNGLWEINSCRILFIV : inactive

---

# assayExplanation: amyloid nucleation score (Sup35N fusion, yeast selection) (log enrichment); library NNK3; higher = more nucleation; inactive = no reads after selection
Exercise: state measured amyloid nucleation score for each of the sequences provided.
// keep it numeric: no unit symbol after the value

// amyloid nucleation score value for IATCTRFIDYVYRDVSSGPC : 0.725

# sequence FMPANAFWTKFCSARNRLYI ; its amyloid nucleation score = -0.135

# amyloid nucleation score of LFTYVPDFSGLTLSTICCLV = 0.458

The reported amyloid nucleation score of the sequence TFLRQGMNSDISYLVRFGGN was -0.057

---

# assayExplanation: amyloid nucleation score (Sup35N fusion, yeast selection) (log enrichment); library NNK3; higher = more nucleation; inactive = no reads after selection
assayMetric: amyloid nucleation score

Sample answers from the record:
# substance, amyloid nucleation score
measured = [
    ("SNMSMMSYYAGRDPRPVSFL", "inactive"),
    ("FFCSSTPKSWMCKQTL", "inactive"),
    ("CDMSCMTKSCPPSYPN", -0.395),
    ("ITNCLTSACRTSLFMKTQII", "inactive"),
    ("QRYTFIIIGTGWTGYYRHTP", -0.156),
    ("MSEKASSEVKINRDAGLGAF", "inactive"),
    ("RSMRSQSSLQAHQSIRSEGR", "inactive"),
    ("LLMSLL", 0.09),
    ("CVGHVRSYYGMQIPKGLKLS", "inactive"),
    ("VLKKGYNKRYVGECIANCTV", "inactive"),
]

amyloid nucleation score measured on VEQMLVFDTPLSYLVKQVKF = inactive

Measured amyloid nucleation score, NSKGMI : inactive

Value of amyloid nucleation score reported for the substance NGVMGRGLYTKSQRSYCDNN is inactive

---

# assayExplanation: amyloid nucleation score (Sup35N fusion, yeast selection) (log enrichment); library NNK2; higher = more nucleation; inactive = no reads after selection
Please note: rule met applies when amyloid nucleation score is 0.007 or greater, and rule not met applies otherwise.

Check this substance for amyloid nucleation score at or above 0.007: AAGRDVARAFGSLVQKLGVG rule met

In plain terms: is recorded amyloid nucleation score at least 0.007 for MDRWGLFMGYCIADHMIMFD ? rule not met

Determine whether this substance has amyloid nucleation score no lower than 0.007: YGFGRHKNGAAMPTMYFAMS rule not met

Identify whether the reported amyloid nucleation score of the following substance is 0.007 or greater: IHASSVILITCFEFNFYYFA rule met

Evaluate FSKLLDGLTNRSESPASSVD : amyloid nucleation score at minimum 0.007? rule met

Is the recorded value of amyloid nucleation score equal to or greater than 0.007 for this substance? FFGLFFNFLLMLINLPKCIV rule not met

Decide: amyloid nucleation score of AYVIRAKEC >= 0.007? rule met

Is the recorded value of amyloid nucleation score equal to or greater than 0.007 for this substance? CWPCRMMKLVREESAVYTGG rule met

Textbook exercise: given the entry WCIKANSMSRNVYVEEMGER , state whether its amyloid nucleation score is greater than or equal to 0.007. rule not met

Determine whether measured amyloid nucleation score meets or exceeds 0.007 for PSLMNEVRMGVQCLLFST rule met

Evaluate MIWPCMVP : amyloid nucleation score at minimum 0.007? rule not met

Decide: amyloid nucleation score of GIISRMGAVSLNLMLQKRAS >= 0.007? rule met

Decide: amyloid nucleation score of MNFCNHPLMDLMVSDLAWWM >= 0.007? rule met

Evaluate RDGKDRAYCGW : amyloid nucleation score at minimum 0.007? rule met

# bool: amyloid nucleation score of TRFILYLGCDE >= 0.007 rule not met

Does the reported amyloid nucleation score for NARGHVNV fall at or above the 0.007 mark? rule met

Is amyloid nucleation score for QQCLINVSSRLLAGVNACSM at or above 0.007? rule met

Is it the case that LNLSYIKAVTSRFAADYVL has amyloid nucleation score reaching or exceeding 0.007? rule met

# check: amyloid nucleation score of RNALLCADLTPLAPLNLFCD is greater than or equal to 0.007 rule not met

Given NNKTKPVVFILSMYNYERFS , state whether its amyloid nucleation score is at least 0.007. rule met

Form field: amyloid nucleation score at least 0.007? Entry: IWTSRQTTIEAITRAHNPST rule met

Has VSTSYVTTIVF a recorded amyloid nucleation score greater than or equal to 0.007? rule not met

Decide: amyloid nucleation score of MDPVWVYADFWMF >= 0.007? rule not met

Could you tell me if the measured amyloid nucleation score of VSFYDVH reaches 0.007 or more? rule met

Given GGTVNYFNTLQRSMGNVESV , state whether its amyloid nucleation score is at least 0.007. rule met

Decide: amyloid nucleation score of SNGCQTRADGLTECDICKPS >= 0.007? rule met

Given FCPRGFTLSSKFLCLNSLRM , state whether its amyloid nucleation score is at least 0.007. rule not met

For this substance, is measured amyloid nucleation score 0.007 or higher? NVPCGYEWSFNLCIMGEASS rule met

Assess whether reported amyloid nucleation score for FSMRCYRVVLKYVSTGW sits at 0.007 or higher. rule met

Is amyloid nucleation score for KLRVFPLKESVSQGALQTVG at or above 0.007? rule not met

Is reported amyloid nucleation score greater than or equal to 0.007 here: WRKRYEYTVRVGRSAKSTLM rule met

Identify whether the reported amyloid nucleation score of the following substance is 0.007 or greater: GVNARQGSHDLVLRIVR rule met

Is amyloid nucleation score for LVMFKVTF at or above 0.007? rule met

Is reported amyloid nucleation score greater than or equal to 0.007 here: LYDIWEDGSITLFCYSYQHH rule met

Is amyloid nucleation score at least 0.007? Consider VALVSGVNNTKDMSRAPNRV rule not met

Is amyloid nucleation score at least 0.007? Consider IHYFRTWVYHYGLRGFGIIR rule met

Decide: is the reported value of amyloid nucleation score for NWLQFF equal to or greater than 0.007? rule met

Is reported amyloid nucleation score greater than or equal to 0.007 here: RLFTWIFPTGNTGF rule met

Does amyloid nucleation score meet or surpass 0.007 for FIIDWSVKFGICSICLAT ? rule met

Can IRGLGWSAPLRVIRVAPTYV be said to have amyloid nucleation score at or above 0.007? rule met

Can VDHLFIRIHSVMIPAL be said to have amyloid nucleation score at or above 0.007? rule not met

Check if amyloid nucleation score >= 0.007 (inclusive). Item: VTKSYITRSVFSVGNYSETS rule not met

Please indicate if the recorded amyloid nucleation score for KLYFCYLEI meets or exceeds 0.007. rule not met

Hi team, for RECIYFRFYSRWATLSFLNR , is the recorded amyloid nucleation score at or above 0.007? rule not met

Check the entry RFEYLFLEEYKLLAMRYLRT : does amyloid nucleation score equal or exceed 0.007? rule not met

Quick check: does NVYDRGVIGYMSNNVHTEGI have amyloid nucleation score greater than or equal to 0.007? rule not met

Is the recorded value of amyloid nucleation score equal to or greater than 0.007 for this substance? YGSESVGGSQRSGNLSWGTG rule met

hey, is amyloid nucleation score for this one >= 0.007? FCDALQISSYTSENYGIVWS rule not met

Test whether the substance GVRLDFYGNHFLWPAVSRGR records amyloid nucleation score of 0.007 or higher. rule met

Has GEGVSIMYRWHL a recorded amyloid nucleation score greater than or equal to 0.007? rule met

Exam item: decide whether the reported amyloid nucleation score for YLSGLIIS is at least 0.007. rule not met

Please tell me: is the substance YMCRVYMSNSINDFDLPHLL at or over 0.007 in terms of amyloid nucleation score? rule met

Is reported amyloid nucleation score greater than or equal to 0.007 here: ESLWMRTLMNVHYSDFRVTV rule not met

Does the reported amyloid nucleation score for YWEDNWAPNIQDLWQRRRCG fall at or above the 0.007 mark? rule met

Tell me whether amyloid nucleation score is at least 0.007 here: VPKVKNLDWSSELAKFKLEV rule met

Given MYFNSRSNYEYAYCWLFIVF , state whether its amyloid nucleation score is at least 0.007. rule met

Tell me whether amyloid nucleation score is at least 0.007 here: RYSATLYPTVPPDPLSAWAL rule met

# bool: amyloid nucleation score of NVPKSSINEWSLPDLLVLNV >= 0.007 rule met

amyloid nucleation score >= 0.007 for QYVEFPLMLTET ? rule met

Check this substance for amyloid nucleation score at or above 0.007: YMFYPNCRSRC rule met

I'd appreciate it if you could say whether ECGPWKFDRIERDMNAVVER has amyloid nucleation score at least equal to 0.007. rule met

Identify whether the reported amyloid nucleation score of the following substance is 0.007 or greater: YYYIRCTAVK rule not met

Kindly determine if amyloid nucleation score recorded for VGLVMHGIVLCLMLSHMSWR is above or exactly 0.007. rule met
